Origin of measurements: patent US5741643A

# Tested on: target polynucleotide 5'-[…]-3' (pol and nef genes of HIV)
# experimental-details: Melting temperature of oligonucleotide clamp/target polynucleotide complex (260 nm absorption v. temperature curve)
# Format: binding
# stated-conditions: half maximum of the 260 nm absorption v. temperature curve
measured-property: melting temperature (°C)
Express your answer in °C, writing the number without its unit.

5'-Chol-CACTTTTCTTTTCCCCCCTCACACACTCCCCCCTTTTCTTTTAC-Chol [DL022]: 67.5
5'-CACTTTTCTTTTGGGGGGTCACACTCCCCCCTTTTCTTTTAC (chemistry not given here) [DL015]: 39.0
5'-Chol-TTTTCTTTTCACACTTTTCTTTTGGGGGGTCACACTCCCCCC-Chol [DL021]: 67.5
5'-CACTTTTCTTTTGGGGGGTCACACTCCCCCCTTTTCTTTTAC-Chol [DL014]: 58

Could you now consider this next substance?
The substance 5'-Chol-CACTTTTCTTTTGGGGGGTCACACTCCCCCCTTTTCTTTTAC-Chol [DL013] showed melting temperature equal to 68.0
